assayed.system: human TLR9 (Homo sapiens)
Sequence (Q9NR96 26-1032): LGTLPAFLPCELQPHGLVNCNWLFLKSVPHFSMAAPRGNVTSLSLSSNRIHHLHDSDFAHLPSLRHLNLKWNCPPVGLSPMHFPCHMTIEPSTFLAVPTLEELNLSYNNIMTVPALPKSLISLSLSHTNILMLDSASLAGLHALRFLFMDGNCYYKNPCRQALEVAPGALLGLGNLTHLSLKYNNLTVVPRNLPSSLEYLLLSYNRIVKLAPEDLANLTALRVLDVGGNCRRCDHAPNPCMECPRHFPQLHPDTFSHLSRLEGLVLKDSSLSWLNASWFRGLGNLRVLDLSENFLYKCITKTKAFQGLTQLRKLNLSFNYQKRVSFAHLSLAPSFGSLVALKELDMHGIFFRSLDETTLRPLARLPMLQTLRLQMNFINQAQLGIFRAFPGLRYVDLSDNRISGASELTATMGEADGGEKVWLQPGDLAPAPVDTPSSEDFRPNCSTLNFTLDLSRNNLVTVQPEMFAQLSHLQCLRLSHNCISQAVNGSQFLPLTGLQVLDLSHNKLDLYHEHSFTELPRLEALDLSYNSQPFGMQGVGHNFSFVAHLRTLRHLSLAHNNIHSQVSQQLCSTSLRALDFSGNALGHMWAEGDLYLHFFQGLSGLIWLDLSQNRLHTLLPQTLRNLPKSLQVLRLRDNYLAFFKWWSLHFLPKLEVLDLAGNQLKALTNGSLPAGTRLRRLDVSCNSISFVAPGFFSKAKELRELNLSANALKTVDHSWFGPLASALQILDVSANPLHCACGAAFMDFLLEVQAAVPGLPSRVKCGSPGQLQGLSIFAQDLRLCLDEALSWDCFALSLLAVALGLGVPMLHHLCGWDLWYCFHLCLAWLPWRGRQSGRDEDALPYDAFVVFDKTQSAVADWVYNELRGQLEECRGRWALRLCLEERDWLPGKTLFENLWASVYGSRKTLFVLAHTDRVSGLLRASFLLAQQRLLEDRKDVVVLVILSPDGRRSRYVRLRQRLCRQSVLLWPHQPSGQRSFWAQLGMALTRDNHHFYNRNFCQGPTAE
protocol.description: HEK293-Blue-hTLR-9 cells assay (SEAP reporter, ODN2006 stimulation)
Assay type: cell-based
test.conditions: HEK293-Blue-hTLR-9 cells, ODN2006 ligand, 20 hrs incubation; read-out: TLR9 IC50
IC50 listing for selected compounds.
Supply the numeric figure in µM, leaving out any unit text.

Please review the following examples before continuing.
compound: C[C@H]1C[C@@H](NC(=O)[C@H](C)N)CN(c2ccc(C#N)n3nccc23)C1
data.value: 10
--
compound: C[C@@H]1CN(c2ccc(C#N)n3nccc23)C[C@H](C(=O)NC(C)(C)CN)O1
data.value: 11
--
compound: C[C@@H]1CN(c2ccc(C#N)n3nccc23)C[C@H](C(=O)NC2C3CCC2CNC3)O1 (some centres unmarked)
data.value: 13

Tell me its IC50 given C[C@@H]1CN(c2ccc(C#N)n3nccc23)C[C@H](C(=O)NC2C3CNC[C@@H]32)O1 (some centres unmarked) as the entry.
1.1

Determine its reported IC50: C[C@@H]1CN(c2ccc(C#N)n3nccc23)C[C@H](C(=O)NC2CC3CCCC(C2)N3)O1 (some centres unmarked)
1.6

Fill in IC50 for record "C[C@H]1C[C@@H](NCC#N)CN(c2ccc(C#N)n3nccc23)C1"
31

In one line, give reported IC50 of the entry "C[C@@H]1CN(c2ccc(C#N)n3nccc23)C[C@H](C(=O)NCC(C)(C)CN)O1" .
19

Consider the compound "C[C@@H]1CN(c2ccc(C#N)n3nccc23)C[C@H](C(=O)NC23CC4CC(CC(C4)C2)C3)O1" . State its measured IC50.
42

Tell us which IC50 value is on record for C[C@@H]1CN(c2ccc(C#N)n3nccc23)C[C@H](C(=O)NC2CCNC2)O1 (some centres unmarked)
25

Please list IC50 recorded for the compound "C[C@@H]1CN(c2ccc(C#N)n3nccc23)C[C@H](C(=O)NC2(C)CCNCC2)O1"
16

Hello, please tell me recorded IC50 for this one: C[C@@H]1CN(c2ccc(C#N)n3nccc23)C[C@H](C(=O)NC2C3CCCC2CNC3)O1 (some centres unmarked)
6.8

Recall and state the measured IC50 for "C[C@@H]1CN(c2ccc(C#N)n3nccc23)C[C@H](C(=O)NC2CCN(C)CC2)O1" .
15

###

assayed.system: human TLR7 (Homo sapiens, UniProt Q9NYK1)
Sequence (Q9NYK1 27-1049): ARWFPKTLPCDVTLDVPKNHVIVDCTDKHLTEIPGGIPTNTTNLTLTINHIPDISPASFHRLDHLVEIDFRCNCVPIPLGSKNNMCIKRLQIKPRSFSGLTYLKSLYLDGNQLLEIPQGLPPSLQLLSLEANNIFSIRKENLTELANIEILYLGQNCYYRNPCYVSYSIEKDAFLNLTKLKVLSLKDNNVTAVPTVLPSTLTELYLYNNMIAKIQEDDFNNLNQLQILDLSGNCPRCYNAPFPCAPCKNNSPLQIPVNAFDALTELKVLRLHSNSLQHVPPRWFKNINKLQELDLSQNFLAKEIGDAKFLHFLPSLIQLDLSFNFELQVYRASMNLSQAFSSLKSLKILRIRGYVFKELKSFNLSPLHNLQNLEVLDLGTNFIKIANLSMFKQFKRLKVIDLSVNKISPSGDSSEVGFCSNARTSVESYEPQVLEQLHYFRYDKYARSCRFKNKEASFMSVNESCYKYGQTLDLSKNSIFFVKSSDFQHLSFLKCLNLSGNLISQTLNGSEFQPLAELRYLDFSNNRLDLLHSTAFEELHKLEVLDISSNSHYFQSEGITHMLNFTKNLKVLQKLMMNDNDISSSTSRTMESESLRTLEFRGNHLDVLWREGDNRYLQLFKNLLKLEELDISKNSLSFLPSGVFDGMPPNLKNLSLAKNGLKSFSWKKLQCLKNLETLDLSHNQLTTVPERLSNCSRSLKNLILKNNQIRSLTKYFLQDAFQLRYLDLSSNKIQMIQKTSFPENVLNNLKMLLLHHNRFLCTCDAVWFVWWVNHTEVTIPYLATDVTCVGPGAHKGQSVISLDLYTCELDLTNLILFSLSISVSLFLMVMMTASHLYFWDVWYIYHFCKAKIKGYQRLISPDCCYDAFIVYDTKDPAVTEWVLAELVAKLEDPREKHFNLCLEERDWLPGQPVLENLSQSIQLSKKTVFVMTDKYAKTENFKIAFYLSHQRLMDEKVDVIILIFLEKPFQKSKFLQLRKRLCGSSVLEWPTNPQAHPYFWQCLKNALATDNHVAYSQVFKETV
protocol.description: HEK293-Blue-hTLR-7 cells assay (SEAP reporter, R848 stimulation)
Type: cell-based
test.conditions: HEK293-Blue-hTLR-7 cells, R848 ligand, 20 hrs incubation; read-out: TLR7 IC50
pIC50: −log10 of the molar value.
Values of pIC50 greater than or equal to 7 map to Fulfilled; values below map to Not fulfilled.

Some solved entries appear below for comparison.
compound: CCC(O)CNC(=O)[C@H]1CN(c2ccc(C#N)n3nccc23)C[C@@H](C)O1 (stereo partly drawn) [Example 13]
class: Not fulfilled
--
compound: C[C@@H]1CN(c2ccc(C#N)n3nccc23)C[C@H](C(=O)N[C@H]2CC[C@@H](O)CC2)O1 [Example 20]
class: Not fulfilled
--
compound: C[C@@H]1CN(c2ccc(C#N)n3nccc23)C[C@H](C(=O)NC2CCCNCC2)O1 (stereo partly drawn) [Example 6]
class: Fulfilled
--
compound: C[C@@H]1CN(c2ccc(C#N)n3ncc(F)c23)C[C@H](C(=O)NC2CCN(C)CC2)O1 [Example 47]
class: Fulfilled

Now consider a different compound.
Hi team, for C[C@@H]1CN(c2ccc(C#N)n3nccc23)C[C@H](C(=O)Nc2ccc(C(=O)N3CCNCC3)cc2)O1 [Example 42] , is the recorded pIC50 at or above 7?
Fulfilled
